Entry source: ChEMBL document CHEMBL3259598

# Assay remarks: Inhibition of melanogenesis in mouse B16-4A5 cells at 1 uM after 72 hrs by spectrophotometry relative to control
# Type: functional
# Condition context: B16-4A5, 72 h
Property label: inhibition at 1 µM (%)
Numbers only, in %.

Known results for compounds:
C=C1/C=C/[C@H](C(C)C)CCC(=C)[C@H](O)CC1 = 28.9
CO[C@H]1C[C@]2(CC[C@H](COC(=O)/C=C/c3ccc(O)c(O)c3)C[C@@H]2O)[C@H](OC)O1 = 13.5
O=C[C@]1(/C=C\O[C@@H]2O[C@H](CO)[C@@H](O)[C@H](O)[C@H]2O)CC[C@H](COC(=O)C2=Cc3ccc(O)c(O)c3[C@@H](c3ccc(O)cc3)[C@@H]2C(=O)OC[C@H]2CC[C@](C=O)(/C=C\O[C@@H]3O[C@H](CO)[C@@H](O)[C@H](O)[C@H]3O)[C@@H](O)C2)C[C@@H]1O = 12.8
O=C[C@]1(/C=C\O[C@@H]2O[C@H](CO)[C@@H](O)[C@H](O)[C@H]2O)CC[C@H](COC(=O)/C=C/c2ccc(O)c(O)c2)C[C@@H]1O = -3.8

Now consider a different compound.
**Query** Look up inhibition at 1 µM: "CC1(C)C[C@H](OC(=O)c2ccccc2)[C@@]23CC[C@@H](O)[C@@](C)(CC[C@H]12)C3"
**Result** 45.3
